Documented Ki across a set of compounds
# measurement.target: AChE (Electrophorus electricus)
# Construct: AChE activity isolated from electric eel (purchased); purchased; host or cells: isolated from electric eel
# Sequence (O42275 24-633): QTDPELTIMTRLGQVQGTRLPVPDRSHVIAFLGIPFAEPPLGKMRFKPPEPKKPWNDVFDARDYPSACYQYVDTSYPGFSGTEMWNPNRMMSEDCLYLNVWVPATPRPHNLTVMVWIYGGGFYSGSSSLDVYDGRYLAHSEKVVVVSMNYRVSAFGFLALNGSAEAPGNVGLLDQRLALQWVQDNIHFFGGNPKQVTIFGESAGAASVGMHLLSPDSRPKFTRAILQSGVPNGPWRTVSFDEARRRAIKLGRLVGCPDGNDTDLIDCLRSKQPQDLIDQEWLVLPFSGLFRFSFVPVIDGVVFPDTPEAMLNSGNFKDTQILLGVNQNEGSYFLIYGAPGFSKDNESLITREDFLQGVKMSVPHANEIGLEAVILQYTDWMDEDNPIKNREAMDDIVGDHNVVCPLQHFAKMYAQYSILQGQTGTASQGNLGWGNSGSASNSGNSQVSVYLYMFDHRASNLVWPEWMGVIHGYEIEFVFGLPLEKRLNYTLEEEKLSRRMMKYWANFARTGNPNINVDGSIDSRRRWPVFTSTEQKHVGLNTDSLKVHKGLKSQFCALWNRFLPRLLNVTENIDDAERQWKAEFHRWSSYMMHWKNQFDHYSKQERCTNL
# protocol.description: biochemical
# recorded.conditions: KI AChE, electric eel AChE, acetylthiocholine iodide/DTNB, 412 nm; mean ± SD
property: Ki (µM)

[[record]]
compound = "NS(=O)(=O)c1ccc(NCc2cccc(Br)c2O)cc1 [Compound 7]"
property = "Ki"
numeric_value = 0.077

[[record]]
compound = "NS(=O)(=O)c1ccc(NCc2cccc(Cl)c2O)cc1 [Compound 8]"
property = "Ki"
numeric_value = 0.0314


* * *

Documented Ki across a set of compounds
# measurement.target: AChE (Electrophorus electricus)
# Construct: AChE activity isolated from electric eel (purchased); purchased; host or cells: isolated from electric eel
# protocol.description: biochemical
# recorded.conditions: electric eel AChE, acetylthiocholine iodide/DTNB, 412 nm; mean ± SD; read-out: KI AChE
property: Ki (nM)

[[record]]
smiles_str = "NS(=O)(=O)c1ccc(N=Cc2cccc(Br)c2O)cc1"
numeric_value = 34.9

[[record]]
smiles_str = "NS(=O)(=O)c1cccc(N=Cc2cccc(Cl)c2O)c1"
numeric_value = 21

[[record]]
smiles_str = "NS(=O)(=O)c1cccc(NCc2cccc(Br)c2O)c1"
numeric_value = 61.2

